System: lettuce seeds
Assay: Inhibition of germination of lettuce seeds, 50% inhibition (Example 5, Table 2)
Type: in vivo, Lactuca sativa L.
Conditions: Lactuca sativa, 48 h; 23° C., dark, 2 days; 1% dimethylformamide; read-out: Inhibition of Germination of Lettuce Seeds, Concentration Giving 50% Inhibition
What IC50 was measured for each of the following?
Give bare numbers, in µg/mL.

Ask: Quick one: IC50 for `CC(=O)c1ccc2c(c1)CCc1cc(O)c(C(C)=O)cc1-2` ?
Result: 80

Would you mind giving IC50 for every molecule in the list below?
1. COc1cc2c(cc1O)CCc1cc(OC)c(OC)c(O)c1-2
2. Oc1cc(O)c2c(c1)CCc1cc(O)c(O)cc1-2
3. COc1cc(CCc2ccccc2O)c(O)c(OC)c1 [Compound 2, 2,2'-dihydroxy-3,5-dimethoxybibenzyl]
4. COc1cc(O)cc(CCc2cccc(O)c2)c1 [Compound 8, 3,3'-dihydroxy-5-methoxybibenzyl]
5. COc1ccc(CCc2cc(O)cc(O)c2)cc1O [Compound 7, 3,3',5'-trihydroxy-4-methoxybibenzyl]
6. Oc1ccc(CCc2ccccc2)c(O)c1 [Compound 5, 2,4-dihydroxybibenzyl]
7. COc1cc(O)cc(CCc2ccccc2)c1 [Compound 1, 3-hydroxy-5-methoxybibenzyl]

Result:
1: 120; 2: 160; 3: 100; 4: 80; 5: 75; 6: 90; 7: 60

Would you mind giving IC50 for every molecule in the list below?
1. COc1cc(CCc2ccc(O)cc2)cc(O)c1OC [Compound 3, 3,4'-dihydroxy-4,5-dimethoxybibenzyl]
2. COc1cc2ccc3cc(O)c(OC)c(OC)c3c2cc1O
3. CC(=O)c1cc(CCc2ccccc2)c(O)cc1O [Compound 4, 4,6-dihydroxy-3-acetyldibenzyl]
4. COc1cc(O)c2c(c1)CCc1cc(O)c(OC)cc1-2
5. Oc1c(Cl)cc(Cl)cc1CCc1cc(Cl)cc(Cl)c1O

Result:
[120, 100, 90, 160, 10]
